- experimental_system: human LPAR1 (Homo sapiens, UniProt Q92633)
- Construct: expressed in transfected cells
- Sequence (Q92633 whole entry): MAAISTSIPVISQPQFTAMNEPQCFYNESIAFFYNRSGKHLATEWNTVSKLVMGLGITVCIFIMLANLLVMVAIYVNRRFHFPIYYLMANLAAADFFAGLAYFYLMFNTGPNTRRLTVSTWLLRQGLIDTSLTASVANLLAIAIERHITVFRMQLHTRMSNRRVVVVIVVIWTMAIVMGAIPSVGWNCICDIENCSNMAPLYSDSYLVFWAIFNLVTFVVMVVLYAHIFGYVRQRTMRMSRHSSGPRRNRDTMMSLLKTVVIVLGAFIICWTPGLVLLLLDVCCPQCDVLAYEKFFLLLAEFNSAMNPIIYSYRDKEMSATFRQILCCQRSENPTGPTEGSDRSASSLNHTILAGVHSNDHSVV
- assay_comment: Test Example 1: antagonism against response of LPA-induced increase in intracellular Ca2+ concentration in RH7777 cells stably expressing human LPAR1
- Format: cell-based
- experimental_parameters: RH7777 cells stably expressing human LPAR1; Fluo-4 fluorescence, FDSS6000; read-out: IC50 value (concentration producing 50% antagonism against response of LPA-induced increase in intracellular Ca2+ concentration) (converted)
We label by threshold. Values of IC50 strictly beneath 8 nM are satisfied. Values of 8 nM and up are not satisfied.

Ask: Identify whether the molecule COc1cc(C(C)N(CCO[C@@H](C)c2ccccc2)C(=O)NC2(C(=O)O)CC(F)(F)C2)c(C)c(OC)c1C (stereo partly shown) records IC50 below 8 nM.
Reply: satisfied

Ask: In plain terms, does CCOc1cc(C(C)N(CCCCc2ccccc2)C(=O)NC(Cc2ccccc2)C(=O)O)cc(OCC)c1C (stereo not shown) come in under 8 nM for IC50?
Reply: not satisfied

Ask: Does this molecule meet the criterion IC50 < 8 nM? CCOc1cc([C@@H](C)N(CCCCc2ccccc2)C(=O)N[C@]2(C(=O)O)C[C@@H](OC)C2)cc(OCC)c1C(C)=O
Reply: satisfied

Ask: Lab note: IC50 threshold 8 nM. Does this molecule come in strictly under it? CCOc1cc([C@@H](C)N(CCOCc2ccccc2)C(=O)NC2CCOCC2C(=O)O)c(Cl)c(OCC)c1C(C)O (single isomer, unassigned) [Example 5-70]
Reply: satisfied

Ask: Does this molecule meet the criterion IC50 < 8 nM? CCOc1cc([C@@H](C)N(CCO[C@@H](C)c2ccccc2)C(=O)NC2(C(=O)O)CC2)cc(OCC)c1C1CC1
Reply: satisfied

Ask: Does the reported IC50 of the following molecule sit strictly below 8 nM? CCOc1cc([C@@H](C)N(CCCCc2ccccc2)C(=O)NC2(C(=O)O)CC(OC)C2)c(Cl)c(OCC)c1C(C)=O (stereo partly shown) [Example 5-48]
Reply: satisfied

Ask: # TODO verify IC50 < 8 nM strictly for this molecule: CCOc1cc(C(CO)N(CCCCc2ccccc2)C(=O)NC2(C(=O)O)Cc3ccccc3C2)cc(OCC)c1C (stereo not shown)
Reply: not satisfied

Ask: Quick check: IC50 of CCOc1c(C2CC2)ccc([C@@H](C)N(CCOC(C)c2ccccc2)C(=O)NC2(C(=O)O)CC(F)(F)C2)c1C (stereo partly shown) under 8 nM?
Reply: satisfied

Ask: Strictly below 8 nM: is that where IC50 of CCOc1cc([C@@H](C)N(CCCCc2ccccc2)C(=O)NC2(c3nnn[nH]3)CC(F)(F)C2)cc(OCC)c1C(C)O (stereo partly shown) sits?
Reply: satisfied

Ask: Lab note: IC50 threshold 8 nM. Does this molecule come in strictly under it? CCOc1cc([C@@H](C)N(CCO[C@@H](C)c2ccccc2)C(=O)NC2(C(=O)O)CC(OC)C2)cc(OCC)c1C(C)O (stereo partly shown) [Example 4-125]
Reply: satisfied

Ask: Check if IC50 falls below 8 nM for Cc1c(OC2CC2)cc(C(C)N(CCCCc2ccccc2)C(=O)NC2(C(=O)O)CC(F)(F)C2)cc1OC1CC1 (stereo not shown) .
Reply: satisfied

Ask: Here's an entry: CCOc1cc([C@@H](C)N(CCO[C@@H](C)c2ccccc2)C(=O)NC2(c3nn[nH]n3)CC2)cc(OCC)c1C(C)=O . Is its IC50 below 8 nM?
Reply: satisfied

Ask: For this molecule, is IC50 lower than 8 nM? CCOc1c(C(C)=O)ccc([C@@H](C)N(CCO[C@@H](C)c2ccccc2)C(=O)NC2(C(=O)O)CC2)c1C
Reply: not satisfied
